- Test system: Staphylococcus aureus
- RUN DESCRIPTION: microbe, parasite or virus in culture
- RUN CONDITIONS: MRSA, read-out: Staphylococcus aureus MIC, MRSA strain NK-41886
Mark 1.0 only for MIC values smaller than 2 µg/mL; exact matches and larger values are 0.0.

Before answering, review these 3 worked examples.
INSERT INTO measurements (compound, class) VALUES
  ('OCc1ccccc1Sc1c[nH]c2ccc(Br)cc12 [Compound 174AT]', 0.0),
  ('Brc1cccc(Sc2c[nH]c3ccc(Br)cc23)c1 [Compound 174N]', 0.0),
  ('Oc1ccccc1Sc1c[nH]c2ccc(Br)cc12 [Compound 174AI, 2-((5-bromo-1H-indol-3-yl)thio)phenol]', 0.0);

Query :: Is 2 µg/mL strictly greater than the compound's reported MIC? compound: Nc1ccccc1Sc1c[nH]c2ccc(Br)cc12 [Compound 174M, 2-((5-bromo-1H-indol-3-yl)thio)aniline]
Result :: 0.0

Query :: Is 2 µg/mL strictly greater than the compound's reported MIC? compound: Cc1ccccc1Sc1c[nH]c2ccc(Br)cc12 [Compound 174AY, 5-bromo-3-(o-tolylthio)-1H-indole]
Result :: 0.0

Query :: Is 2 µg/mL strictly greater than the compound's reported MIC? compound: Brc1ccc(Sc2c[nH]c3ccc(Br)cc23)cc1 [Compound 172D]
Result :: 1.0

Each recorded value in this set is attributed to patent US20250382268A1.
